system: LO2 (Homo sapiens); experiment: Cytotoxicity against human L02 cells assessed as reduction in cell viability measured after 72 hrs by MTT assay; settings: l02, 72 h
metric_name: Activity

# annotated cases, reported Activity shown
compound	meas_value
Cc1cc(Nc2ncc(Cl)c(Nc3ccccc3S(=O)(=O)C(C)C)n2)c(OC(C)C)cc1C1CCN(CCC(=O)NCCCCCCCCNCC(=O)Nc2cccc3c2C(=O)N(C2CCC(=O)NC2=O)C3=O)CC1 (stereo not drawn)	Toxic
Cc1cc(Nc2ncc(Cl)c(Nc3ccccc3S(=O)(=O)C(C)C)n2)c(OC(C)C)cc1C1CCN(CCC(=O)NCCOCCNCC(=O)Nc2cccc3c2C(=O)N(C2CCC(=O)NC2=O)C3=O)CC1 (stereo not drawn)	Toxic
Cc1cc(Nc2ncc(Cl)c(Nc3ccccc3S(=O)(=O)C(C)C)n2)c(OC(C)C)cc1C1CCN(CCC(=O)NCCCCNC(=O)COc2cccc3c2C(=O)N(C2CCC(=O)NC2=O)C3=O)CC1 (stereo not drawn)	Toxic
Cc1cc(Nc2ncc(Cl)c(Nc3ccccc3S(=O)(=O)C(C)C)n2)c(OC(C)C)cc1C1CCN(CCC(=O)NCCCCCCNCC(=O)Nc2cccc3c2C(=O)N(C2CCC(=O)NC2=O)C3=O)CC1 (stereo not drawn)	Toxic
Cc1cc(Nc2ncc(Cl)c(Nc3ccccc3S(=O)(=O)C(C)C)n2)c(OC(C)C)cc1C1CCN(CCC(=O)NCCOCCOCCNc2cccc3c2C(=O)N(C2CCC(=O)NC2=O)C3=O)CC1 (stereo not drawn)	Toxic

Task: Could you share which Activity value was measured for Cc1cc(Nc2ncc(Cl)c(Nc3ccccc3S(=O)(=O)C(C)C)n2)c(OC(C)C)cc1C1CCN(CCC(=O)NCCCCNCC(=O)Nc2cccc3c2C(=O)N(C2CCC(=O)NC2=O)C3=O)CC1 (stereo not drawn) ?
Output: Toxic

Task: Could you share which Activity value was measured for Cc1cc(Nc2ncc(Cl)c(Nc3ccccc3S(=O)(=O)C(C)C)n2)c(OC(C)C)cc1C1CCN(CCC(=O)NCCOCCNCCC(=O)Nc2cccc3c2C(=O)N(C2CCC(=O)NC2=O)C3=O)CC1 (stereo not drawn) ?
Output: Toxic

Task: Could you share which Activity value was measured for Cc1cc(Nc2ncc(Cl)c(Nc3ccccc3S(=O)(=O)C(C)C)n2)c(OC(C)C)cc1C1CCN(CCC(=O)NCCOCCOCCNCC(=O)Nc2cccc3c2C(=O)N(C2CCC(=O)NC2=O)C3=O)CC1 (stereo not drawn) ?
Output: Toxic

All values here come from ChEMBL document CHEMBL4732145.
